Values were extracted from patent US7915199B1.

Let's look at some molecules and their measured melting point.

Example molecules with recorded melting point:
MOLECULE_SMILES	EXPERIMENTAL_RESULT
COc1cc(C)cc(Br)c1-c1c(O)n2n(c1=O)CCOCC2	217 to 219 °C
CCc1cc(C)cc(C)c1-c1c(O)n2n(c1=O)CCOCC2	182 to 185 °C

Consider the molecule shown here: Cc1cc(C)c(-c2c(OC(=O)C(C)(C)C)n3n(c2=O)CCOCC3)c(C(C)C)c1 What is its recorded melting point? 148 to 151 °C

Please answer likewise for Cc1cc(C)c(-c2c(O)n3n(c2=O)CCOCC3)c(C(C)C)c1 214 to 216 °C

* * *

The reader will find reported melting point values listed item by item below.

Examples with their reported melting point follow.
MOLECULE_SMILES	melting point
CCc1cc(C)cc(C)c1-c1c(OC(=O)C(C)(C)C)n2n(c1=O)CCOCC2	110 to 113 °C
CCOC(=O)Oc1c(-c2c(CC)cc(C)cc2CC)c(=O)n2n1CCOCC2	114 to 116 °C

# ---- query compound ----
Give its melting point value. Item: COc1cc(C)cc(Br)c1-c1c(OC(=O)C(C)(C)C)n2n(c1=O)CCOCC2 173 to 175 °C
